// provenance: the supplement of paper PMC10126150

# System: ATP;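 also: ATP exposure 15 min at 22 °C before imaging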
# measurement-notes: switch fluorescence ratio, 500 uM ATP over buffer (Cy3 cluster intensity, sum of 5 cycles each) (fold (ratio)); higher = stronger signal-on switching upon ATP binding; sequences stand for … in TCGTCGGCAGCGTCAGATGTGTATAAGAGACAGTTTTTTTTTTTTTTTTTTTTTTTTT…TC
# setup-conditions: aptamer strand: ATP DNA aptamer (quencher-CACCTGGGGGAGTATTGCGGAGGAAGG + anchor), 100 nM annealed; ATP concentration: 500 uM
property-measured: switch fluorescence ratio
Answers are plain numbers.

| biosequence | switch fluorescence ratio |
| --- | --- |
| GGAATTTCGG | 1.17 |

Look at each sequence and report its switch fluorescence ratio.
1. CATGGGAAAT
2. AGTTTAATTA

1. 1.01
2. 0.971

###

# System: ATP;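 also: ATP exposure 15 min at 22 °C before imaging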
# measurement-notes: switch fluorescence ratio, 500 uM ATP over buffer (Cy3 cluster intensity, sum of 5 cycles each) (fold (ratio)); higher = stronger signal-on switching upon ATP binding; sequences stand for … in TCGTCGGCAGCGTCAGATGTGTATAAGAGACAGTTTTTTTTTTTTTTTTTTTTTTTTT…TC
# setup-conditions: aptamer strand: ATP DNA aptamer (quencher-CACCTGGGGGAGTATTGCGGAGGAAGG + anchor), 100 nM annealed; ATP concentration: 500 uM
Answer each item with its documented switch fluorescence ratio.
Numbers only.

// solved cases for switch fluorescence ratio follow
| biosequence | target-desc | observed-value |
| --- | --- | --- |
| AGGACGGGGA | ATP | 0.99 |
| AAATCTGTAA | ATP | 1.03 |
| GGATGGTTCG | ATP | 0.972 |
| CTTATTCGTC | ATP | 1.04 |
| CTTGGTCGGC | ATP | 1.07 |

Return reported switch fluorescence ratio values for all items listed beneath this line.
1. GAGGGTTTGG
2. ACCCTCTGGG
3. TGATGATGGG
4. TATTATGCGA
5. CAAATTTCAT
6. AGGGTTCGAC
7. GTTAAAAGTG

1: 0.989; 2: 1.01; 3: 0.985; 4: 1.04; 5: 0.985; 6: 1.01; 7: 0.987

###

Would you kindly list switch fluorescence ratio for each of these sequences?
# System: ATP;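 also: ATP exposure 15 min at 22 °C before imaging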
# measurement-notes: switch fluorescence ratio, 500 uM ATP over buffer (Cy3 cluster intensity, sum of 5 cycles each) (fold (ratio)); higher = stronger signal-on switching upon ATP binding; sequences stand for … in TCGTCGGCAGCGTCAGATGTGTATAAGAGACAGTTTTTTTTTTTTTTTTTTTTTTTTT…TC
# setup-conditions: aptamer strand: ATP DNA aptamer (quencher-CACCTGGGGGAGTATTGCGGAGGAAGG + anchor), 100 nM annealed; ATP concentration: 500 uM
Give bare numbers.

Some solved entries appear below for comparison.
| biosequence | switch fluorescence ratio |
| --- | --- |
| CGGGCGAATT | 0.982 |
| AATTTTAAGC | 0.967 |
| AGACTCCAAG | 1 |
| AGGACGAGCA | 1.12 |
| TTTGTGGTAG | 0.984 |

List the reported switch fluorescence ratio of each sequence below.
1. GAACTTGGGA
2. GGGGGTGGCA
3. CGTTTCGCAG
4. ATGGGAGGCG
5. GGTAGAGGTA
6. CGGACTAGTT

1: 0.983; 2: 0.998; 3: 1.03; 4: 0.982; 5: 1.02; 6: 0.994
